- system-name: UniProt A0ABM2YAB8
- Sequence (A0ABM2YAB8 entry or part of it): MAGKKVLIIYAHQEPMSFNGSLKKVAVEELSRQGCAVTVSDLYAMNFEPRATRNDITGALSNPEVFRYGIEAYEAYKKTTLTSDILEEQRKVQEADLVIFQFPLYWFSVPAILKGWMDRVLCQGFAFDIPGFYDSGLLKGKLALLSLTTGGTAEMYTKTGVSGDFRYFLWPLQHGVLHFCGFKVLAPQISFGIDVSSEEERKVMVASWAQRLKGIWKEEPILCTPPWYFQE
observed-property: pIC50
Numbers only, as −log10 of the molar value.

Requested field: pIC50. Item: COc1ccc2[nH]cc(CCNC(C)=O)c2c1
6.80

---

For each entry below, report its pIC50 value.
- Tested on: 280 human cancer cell lines
- assay-name: OncoPanel cell proliferation assay (10-day)
- Assay type: cell-based
- assay-setup: Homo sapiens, RPMI-8226, RPMI 8226, Myeloma; read-out: Cell Count IC50
Numbers only, as −log10 of the molar value.

Consider the reported pIC50 for these compounds:
compound: CC(C)=CCC[C@@H]1C(O)Oc2c(C)cc(O)c3c2[C@H]1CC[C@H]3C (stereo partly drawn) [Compound 2, 5,18-epoxyserrulat-14-en-8,18-diol]
observed-property: pIC50
result-value: 5.69
//
compound: CC(C)=CCC[C@H](C)[C@@H]1CC[C@@H](C)c2c1cc(C)c(O)c2O [Compound 4, 7,8-dihydroxyserrulat-14-ene]
observed-property: pIC50
result-value: 5.52

Now let's try a different one.
Requested field: pIC50. Item: CC(C)=CCC[C@H](CO)[C@@H]1CC[C@@H](C)c2c1cc(C)c(O)c2O [Compound 1, 7,8,18-trihydroxyserrulat-14-ene]
6.17
